Assay: General cytotoxicity against THP1 cells
Type: cell-based, human
Details: human, THP1 cells; Table 2
Endpoint label: IC50

Need IC50 of C[C@@H]1[C@H](O)[C@@H](C)/C=C/C=C/C=C/C=C/C=C/C=C/C=C/[C@H](O[C@@H]2O[C@H](C)[C@@H](O)[C@H](N)[C@@H]2O)C[C@@H]2O[C@](O)(C[C@@H](O)C[C@@H](O)[C@H](O)CC[C@@H](O)C[C@@H](O)CC(=O)O[C@H]1C)C[C@H](O)[C@H]2C(=O)O [AMB, Amphotericin, reference compound] , thanks.
> 2 µg/mL

Fill in the blank: the reported IC50 of N=C(N)c1ccc(OCCCCCOc2ccc(C(=N)N)cc2)cc1 [PENT, Pentamidine, reference compound] is ____.
> 10 µg/mL

---

Assay: General cytotoxicity against THP1 cells
Format: cell-based, human
Details: human, THP1 cells; Table 1
Endpoint label: IC50

Quick check: IC50 of O=c1c(OC2OC(CO)C(O)C(O)C2O)c(-c2cc(O)c(O)c(O)c2)oc2cc(O)cc(O)c12 [Compound 6, myricetin-3-O-β-D-galactopyranoside] ?
> 10 µM

Query: IC50; subject: C[C@@H]1[C@H](O)[C@@H](C)/C=C/C=C/C=C/C=C/C=C/C=C/C=C/[C@H](O[C@@H]2O[C@H](C)[C@@H](O)[C@H](N)[C@@H]2O)C[C@@H]2O[C@](O)(C[C@@H](O)C[C@@H](O)[C@H](O)CC[C@@H](O)C[C@@H](O)CC(=O)O[C@H]1C)C[C@H](O)[C@H]2C(=O)O [AMB, Amphotericin, reference compound]
> 2 µM

// lookup IC50 for O=c1c(O)c(-c2cc(O)c(O)c(O)c2)oc2cc(O)cc(O)c12 [Compound 4, myricetin]
> 10 µM

# get_value(readout='IC50', item= O=c1c(O[C@@H]2O[C@H](CO)[C@H](O)[C@H](O)[C@H]2O)c(-c2ccc(O)c(O)c2)oc2cc(O)cc(O)c12 [Compound 5, hyperoside] )
> 10 µM

# query: IC50 of entry O=c1c(O)c(-c2ccc(O)c(O)c2)oc2cc(O)cc(O)c12 [Compound 1, quercetin]
> 10 µM

---

Give IC50 for every item shown.
Assay: General cytotoxicity against THP1 cells
Assay type: cell-based, human
Conditions: human, THP1 cells; Table 1

Can you look up the measured IC50 of O=c1c(O)c(-c2cc(O)c(O)c(OC3OC(CO)C(O)C(O)C3O)c2)oc2cc(O)cc(O)c12 [Compound 7, myricetin-3’-O-β-D-glucopyranoside] for me?
> 10 µM

What measured IC50 goes with O=c1c(-c2c(O)cc(O)c3c(=O)cc(-c4ccc(O)cc4)oc23)c(-c2ccc(O)cc2)oc2cc(O)cc(O)c12 [Compound 3, biapigenin] ?
> 10 µM

Quick check: IC50 of N=C(N)c1ccc(OCCCCCOc2ccc(C(=N)N)cc2)cc1 [PENT, Pentamidine, reference compound] ?
> 10 µM
